Please respond with reported IC50 for every item in the list.
- TARGET OF ASSAY: EGFR (Homo sapiens)
- ASSAY PROCEDURE: In vitro inhibition of EGFR, Flash Plate or glass-fiber filter technology (C2)
- Assay type: biochemical
- Set-up: 0.5 μg EGFR-kinase domain/well
- CONDITION DETAILS: EGFR-kinase domain, 5.0 μM unlabeled ATP, read-out: Kinase activity.(C2): pIC50 (converted)
Provide the reading as a plain figure in nM.

The recorded IC50 for entry COc1cc2ncnc3c2cc1OCC(=O)N1CC(O)CC1C(=O)NCCc1ccc(Cl)cc1N3 (centres unmarked) [Compound 149] equals 126

The reported value for COCCNCC(=O)N1CCOc2cc3c(ncnc3cc2OC)Nc2cc(Cl)ccc2CCCNC(=O)C1 [Compound 48] in terms of IC50 is 316

Documented IC50 of COc1cc2ncnc3c2cc1OCCN(C(=O)CNC(CO)CO)CC(=O)NCCCc1ccc(Cl)cc1N3 [Compound 44] : 631

Summary for this compound, COc1cc2ncnc3c2cc1OCCCNC(=O)CNCc1ccc(Cl)cc1N3 [Compound 99] : IC50 is 25.1

# IC50 of COc1cc2ncnc3c2cc1OCC(=O)NCC(=O)NCc1ccc(Cl)cc1N3 [Compound 151] = 3160

For reference, reported IC50 for COc1cc2ncnc3c2cc1OCCCC=CCC(NC(=O)OC(C)(C)C)C(=O)NCc1ccc(Cl)cc1N3 (centres unmarked) [Compound 110] stands at 3980

The recorded IC50 for COc1cc2ncnc3c2cc1OCCCCCNCc1ccc(Br)cc1N3 [Compound 20] is 25.1

Lookup result for COc1cc2ncnc3c2cc1OCCCNC(=O)CN(C)Cc1cc(F)c(Cl)cc1N3 [Compound 80] ; measured IC50: 20

Field IC50 (entry COc1cc2ncnc3c2cc1OCCNC(=S)C1CCCN1Cc1cc(F)c(Cl)cc1N3 (centres unmarked) [Compound 104] ) reads 1000

Short answer for COc1cc2ncnc3c2cc1OCC(=O)N1CC(O)CC1C(=O)NCc1ccc(Cl)cc1N3 (centres unmarked) [Compound 133] : IC50 was 1580

# compound COc1cc2ncnc3c2cc1OCC(=O)NC(CC(C)C)C(=O)NCCc1ccc(Cl)cc1N3 (centres unmarked) [Compound 141] ; its IC50 = 794

Query COc1cc2ncnc3c2cc1OCCCC(=O)NC(Cc1ccccc1)C(=O)NCc1ccc(Cl)cc1N3 (centres unmarked) [Compound 145] yields IC50 of 200

Lab note: measured IC50 of COc1cc2ncnc3c2cc1OCCCC(=O)NCCC(=O)NCc1ccc(Cl)cc1N3 [Compound 155] was 316

Just so you know, measured IC50 for COc1cc2ncnc3c2cc1OCCCCCN(C(=O)OC(C)(C)C)Cc1ccc(Br)cc1N3 [Compound 19] came out at 63.1

The compound identified as COc1cc2ncnc3c2cc1OCCCC=CCCCC(=O)NCc1ccc(Cl)cc1N3 [Compound 106] registered its IC50 at 100

For this compound ( CCC(C)C1NC(=O)CCCOc2cc3c(ncnc3cc2OC)Nc2cc(Cl)ccc2CNC1=O (centres unmarked) [Compound 128] ), measured IC50 is 10

IC50 recorded for this compound, COc1cc2ncnc3c2cc1OCCCCCCCCOc1ccc(Cl)cc1N3 [Compound 8] , is 31.6

* * *

- TARGET OF ASSAY: EGFR (Homo sapiens)
- ASSAY PROCEDURE: In vitro inhibition of EGFR, Flash Plate or glass-fiber filter technology (C2)
- Format: biochemical
- Set-up: 0.5 μg EGFR-kinase domain/well
- CONDITION DETAILS: EGFR-kinase domain, 5.0 μM unlabeled ATP, read-out: Kinase activity.(C2): pIC50 (converted)
- Protocol: The in vitro inhibition of EGFR was assessed using either the Flash Plate technology or the glass-fiber filter technology as described by Davies, S. P. et al., Biochem J. (2000), 351; p. 95-105. The Flash Plate technology is generally described by B. A. Brown et al. in High Throughput Screening (1997), p. 317-328. Editor(s): Devlin, John P. Publisher: Dekker, New York, N.Y. […]
Record form. Attribute: IC50. Fill in for each entry.

Per the reported EGFR (Homo sapiens) data, COc1cc2ncnc3c2cc1OCCNC(=O)C(CC(C)C)NC(=O)Cc1ccc(Cl)cc1N3 (centres unmarked) has IC50 of 100 nM

Summary: `COc1cc2ncnc3c2cc1OCCCCCCOc1ccc(Cl)cc1N3` , EGFR (Homo sapiens), IC50 = 15.8 nM

The reported IC50 value, EGFR (Homo sapiens), for `COc1cc2ncnc3c2cc1OCCCCCCOc1ccc(C#N)cc1N3` reads 316 nM

Let me check: `COc1cc2ncnc3c2cc1OCCCNC(=O)CCc1ccc(Cl)cc1N3` , system EGFR (Homo sapiens), measured IC50 is 2.51 nM

Reading of IC50 for COc1cc2ncnc3c2cc1OCCCCC(=O)NC(CC(C)C)C(=O)NCc1ccc(Cl)cc1N3 (centres unmarked) with EGFR (Homo sapiens): 631 nM

Record `COc1cc2ncnc3c2cc1OCCNCCN(C)Cc1ccc(Cl)cc1N3` ; system EGFR (Homo sapiens); IC50 = 200 nM

Here `COc1cc2ncnc3c2cc1OCCCCNC(=O)CNCc1ccc(Cl)cc1N3` was tested on EGFR (Homo sapiens), and its IC50 came to 251 nM

EGFR (Homo sapiens) assay, molecule `COc1cc2ncnc3c2cc1OCCN(C(=O)CN(C)CCN(C)C)CC(=O)NCCCc1ccc(Cl)cc1N3` , recorded IC50 = 126 nM

* * *

- TARGET OF ASSAY: EGFR (Homo sapiens, UniProt P00533)
- Sequence (P00533 712-979 limits assumed): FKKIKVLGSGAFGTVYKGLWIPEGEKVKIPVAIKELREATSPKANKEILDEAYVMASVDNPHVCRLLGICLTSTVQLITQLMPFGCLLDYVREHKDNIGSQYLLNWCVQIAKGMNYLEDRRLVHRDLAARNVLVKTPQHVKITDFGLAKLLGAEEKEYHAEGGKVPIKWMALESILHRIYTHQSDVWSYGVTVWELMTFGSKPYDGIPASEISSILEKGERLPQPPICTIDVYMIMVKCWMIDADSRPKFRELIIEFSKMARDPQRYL
- ASSAY PROCEDURE: In vitro inhibition of EGFR, Flash Plate or glass-fiber filter technology (C2)
- Format: biochemical
- Set-up: 0.5 μg EGFR-kinase domain/well
- CONDITION DETAILS: EGFR-kinase domain, 5.0 μM unlabeled ATP, read-out: Kinase activity.(C2): pIC50 (converted)
Assignment: determine reported IC50 for the given compounds.
Please state the figure in nM; there is no need to write the unit.

Per the record, COc1cc2ncnc3c2cc1OCC(=O)N1CCCC1C(=O)NCc1ccc(Cl)cc1N3 (centres unmarked) has IC50 of 2000

IC50 for `Brc1ccc2c(c1)Nc1ncnc3cc(OCCCN4CCOCC4)c(cc13)OCCCCCCO2` is 39.8

Quick note, IC50 for `COc1cc2ncnc3c2cc1OCCCCCNCc1cc(F)c(Cl)cc1N3` landed at 31.6

IC50 recorded for this compound, COc1cc2ncnc3c2cc1OCC(=O)N1CCCC1C(=O)NCCc1ccc(Cl)cc1N3 (centres unmarked) , is 200

Noted for `COc1cc2ncnc3c2cc1OCCCCCCOc1c(Cl)cccc1N3` : its IC50 reads 100

* * *

- TARGET OF ASSAY: EGFR (Homo sapiens)
- ASSAY PROCEDURE: In vitro inhibition of EGFR, Flash Plate or glass-fiber filter technology (C2)
- Assay type: biochemical
- Design: 0.5 μg EGFR-kinase domain/well
- CONDITION DETAILS: EGFR-kinase domain, 5.0 μM unlabeled ATP, read-out: Kinase activity.(C2): pIC50 (converted)
MEASUREMENT TYPE: log10(IC50) (log10 of the value in nM)
Scale: log10; quantity: IC50; unit before log: nM

Recorded result, COc1cc2ncnc3c2cc1OCCNC(=O)C(C(C)C)NC(=O)Cc1ccc(Cl)cc1N3 (centres unmarked) , log10(IC50): 1.90

molecule COc1cc2ncnc3c2cc1OCC(=O)NC(C)C(=O)NCc1ccccc1N3 (centres unmarked) , log10(IC50) observed: 3.80

For record `COc1cc2ncnc3c2cc1OCCN(C(=O)CN1CCOCC1)CC(=O)NCCCc1ccc(Cl)cc1N3` the listed log10(IC50) is 1.90

So for COc1cc2ncnc3c2cc1OCCNC(=O)C1CCCN1Cc1ccc(Cl)cc1N3 (centres unmarked) [Compound 83] , the logged log10(IC50) turned out to be 2.70

The molecule identified as COc1cc2ncnc3c2cc1OCCNC(=O)C1CCCN1Cc1ccc(Cl)cc1N3 (centres unmarked) [Compound 71] registered its log10(IC50) at 1.50

The reported value for `COc1cc2ncnc3c2cc1OCC(=O)NCCC(=O)NCc1ccc(Cl)cc1N3` in terms of log10(IC50) is 1.50

Given item COc1cc2ncnc3c2cc1OCCCC=CCCCC(=O)NCc1ccc(Cl)cc1N3 [Compound 105] , the value recorded as its log10(IC50) is 2.20

The measured log10(IC50) associated with `COc1cc2ncnc3c2cc1OCCCNC(=O)CN(C)Cc1ccc(Cl)cc1N3` reads 1.40

* * *

- TARGET OF ASSAY: EGFR (Homo sapiens, UniProt P00533)
- ASSAY PROCEDURE: In vitro inhibition of EGFR, Flash Plate or glass-fiber filter technology (C2)
- Type: biochemical
- Design: 0.5 μg EGFR-kinase domain/well
- CONDITION DETAILS: EGFR-kinase domain, 5.0 μM unlabeled ATP, read-out: Kinase activity.(C2): pIC50 (converted)
MEASUREMENT TYPE: IC50 (nM)
Express it in nM; write the number only.

What the record says about COc1cc2ncnc3c2cc1OCCCC(=O)NC(CC(C)C)C(=O)NCc1ccc(Cl)cc1N3 (centres unmarked) : IC50 is 501

IC50 measured on COc1cc2ncnc3c2cc1OCCCCC(=O)NC(Cc1ccccc1)C(=O)NCc1ccc(Cl)cc1N3 (centres unmarked) = 2000

Entry COc1cc2ncnc3c2cc1OCCCC(=O)NC(C)C(=O)NCc1ccc(Cl)cc1N3 (centres unmarked) — recorded IC50 = 25.1

The molecule identified as `COc1cc2ncnc3c2cc1OCC(=O)N(C)CC(=O)NCc1ccc(Cl)cc1N3` registered its IC50 at 316

Kindly note the recorded IC50 for `COc1cc2ncnc3c2cc1OCCCCCCOc1ccc(-c2cccc(C#N)c2)cc1N3` , which is 3980

Record `COc1cc2ncnc3c2cc1OCCCNC(=O)CNCc1cc(F)c(Cl)cc1N3` , field IC50: 20

So for `COc1cc2ncnc3c2cc1OCCCNCC(=O)NCCCc1ccc(Cl)cc1N3` , the logged IC50 turned out to be 501

IC50 reported for this molecule `COc1cc2ncnc3c2cc1OCCCCCCOc1ccc(-c2ccccc2)cc1N3` : 63.1

The values you see were collected from patent US8394786B2.
